The measured values listed here are drawn from PubChem BioAssay (NCI).

This listing pairs compounds with measured growth inhibition.
Test: NCI Yeast Anticancer Drug Screen. Data for the mec2-1 strain (AID 157)
Details: S. cerevisiae mec2-1 strain, at 5.0 µM (retest, dose inferred, filed as 0.5), active compounds read high
Method: Growth inhibition of yeast strains with defined genetic alterations is measured as a screen for potential anti-cancer activity. Selected strains with alterations in DNA damage repair or cell cycle control were exposed to compounds and growth inhibition was measured relative to vehicle treated controls. The strain used in this assay is mec2-1
This is part of a sample that, as a whole, favours compounds with a hit. Of some 79,000 tested, about 15% had one in any assay.
Parameter: growth inhibition (%)

>>> value_observed("CCOC(=O)C(NC(=O)CC)(N1CCN(c2cc3c(cc2F)c(=O)c(C(=O)O)cn3C2CC2)CC1)C(F)(F)F (centres undefined)")
0
>>> value_observed("O=c1ccc(N=Nc2ccccc2)ccc1O")
28
>>> value_observed("CC1OC(OC2CCCc3c(O)c4c(c(O)c32)C(=O)c2ccccc2C4=O)CC(N)C1O (centres undefined)")
8
>>> value_observed("CCC(NC(C)c1ccccc1)C(=O)c1ccc(OCc2ccccc2)c(OCc2ccccc2)c1 (centres undefined)")
9
>>> value_observed("O=C(/C=N/O)Nc1cc(Cl)c(Cl)cc1Cl")
55
>>> value_observed("CC(=O)N1C(=O)/C(=C\\C(=O)c2ccc([N+](=O)[O-])cc2)c2ccccc21")
60
>>> value_observed("O=C1OC2C(O)COC2(OCc2c[nH]c3ccccc23)C1O (centres undefined) (tested in a mixture with another compound)")
-3
>>> value_observed("Cc1ccc(N=Nc2ccc(O)c(C)c2)cc1")
52
>>> value_observed("CN(NC(=O)/C(=C/c1ccc(O)cc1)NC(=O)c1ccccc1)c1ccnc2cc(Cl)ccc12")
15
>>> value_observed("COc1ccc(/C(C#N)=C/c2ccc(OC)c(OC)c2)cc1")
56
>>> value_observed("CCN(CC)CC(O)C1CCC(c2ccccc2)CC1 (centres undefined)")
11
>>> value_observed("N#C/C(=C\\c1ccccc1)c1ccccc1F")
-11
>>> value_observed("CN(CC(=O)O)c1ccc(/C=C/c2ccnc3ccccc23)cc1")
6
>>> value_observed("O=c1[nH]c2ccccc2c2nc3ccccc3n12")
62
>>> value_observed("O=C(/C=C/c1cccc(Br)c1)c1ccc(Cl)cc1")
32
>>> value_observed("N#C/C(=C/c1c(Cl)cccc1Cl)C(N)=O")
46
>>> value_observed("N#CSC1CCCCNC1=O (centres undefined)")
-47
>>> value_observed("COc1ccc(C(C#N)=C2C=CC(=NO)C=C2)cc1")
-2
>>> value_observed("COc1ccc(N=Nc2ccc3oc(=O)c(C(=O)Nc4ccccc4)cc3c2)cc1")
-12

###

assay: NCI Yeast Anticancer Drug Screen. Data for the CLN2oe strain (AID 163);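 note: 0% = growth of vehicle-only control cultures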; conditions: S. cerevisiae CLN2oe strain, at 11.0 µM, active compounds read high
About 79,000 compounds went through this panel and 15% of them were active in at least one assay; those are over-represented in the sample as a whole. Calls of active or inactive are those of the source. No stated cut-off is given here; in the data, active means growth inhibition above about 70%; inactive means the rest.
Parameter: growth inhibition

>>> value_observed("C/C(=N\\NC(=S)NNC(=S)N(C)c1ccccc1)c1ccccn1")
"97% (active)"
>>> value_observed("CCCCCC#CCOC(=O)C(=[N+]=[N-])P(=O)(c1ccccc1)c1ccccc1")
"9% (inactive)"
>>> value_observed("CCCCCCCCCCCc1nc(N)n[nH]1")
"-13% (inactive)"
>>> value_observed("CC(=O)C1(O)Cc2c(O)c3c(c(O)c2C(OC2CC(N)C(O)C(C)O2)C1)C(=O)c1ccccc1C3=O (configuration not stated)")
"93% (active)"
>>> value_observed("CCC(c1ccc(O)cc1)C(CC)c1ccc(OCCN)cc1 (configuration not stated)")
"5% (inactive)"
>>> value_observed("Cc1nc2c(ncn2CCO)c(=O)[nH]1")
"-2% (inactive)"
>>> value_observed("C=Cc1cnc([N+](=O)[O-])n1C")
"14% (inactive)"
>>> value_observed("Cc1ccc(S(=O)(=O)N/N=C/C2(c3ccccc3)c3ccccc3-c3ccccc32)cc1")
"80% (active)"
>>> value_observed("CC(C)c1cccc(O)c(=O)c1")
"2% (inactive)"
>>> value_observed("CCN(CC)CC(O)c1cc(-c2ccc(Cl)cc2)nc2c(-c3ccccc3)cccc12 (configuration not stated)")
"98% (active)"
>>> value_observed("CCCCCCCCN1C(=O)c2ccccc2C1=O")
"-1% (inactive)"
>>> value_observed("CC(=O)C1=C(C)O/C(=C/c2cccc(Cl)c2)C1=O")
"15% (inactive)"
>>> value_observed("O=C(/C=C/c1cccc(Br)c1)c1ccc(Cl)cc1")
"-13% (inactive)"
>>> value_observed("CC(=O)[C@]1(O)Cc2c(O)c3c(c(O)c2[C@@H](OC2CC(N)C(O)C(C)O2)C1)C(=O)c1c(OCc2ccccc2)cccc1C3=O (some centres not stated)")
"27% (inactive)"
>>> value_observed("CC(=O)O[C@H]1C(=O)[C@@]2(C)[C@H]([C@H](OC(=O)c3ccccc3)[C@]3(O)C[C@H](OC(=O)[C@H](O)[C@@H](NC(=O)c4ccccc4)c4ccccc4)C(C)=C1C3(C)C)[C@]1(OC(C)=O)CO[C@@H]1C[C@@H]2O")
"-5% (inactive)"
>>> value_observed("Nc1nc(N)c2c(n1)CCC(S(=O)(=O)c1ccc3ccccc3c1)C2 (configuration not stated)")
"0% (inactive)"
>>> value_observed("O=C1c2ccccc2CCC1(Br)Br")
"93% (active)"
>>> value_observed("O=Cc1coc2ccccc2c1=O")
"27% (inactive)"
>>> value_observed("Nc1ccc2c(=S)c3ccccc3[nH]c2c1")
"13% (inactive)"
>>> value_observed("COc1cc(N)ccc1Nc1c2ccccc2nc2ccccc12")
"6% (inactive)"
>>> value_observed("Nc1cc(F)cc2c1-c1ccc(F)cc1C2")
"-1% (inactive)"
>>> value_observed("Cc1cc(C(C)(C)CC(C)(C)C)cc(O)c1O")
"81% (active)"
>>> value_observed("CC1=CC2C(C(C)C)CC1C1C(=O)OC(=O)C21 (configuration not stated)")
"-10% (inactive)"
>>> value_observed("COc1ccc(N2CN(C)CSC2=S)cc1")
"-39% (inactive)"
>>> value_observed("[N-]=[N+]=NC(c1ccccc1)(c1ccccc1)c1ccccc1")
"20% (inactive)"
>>> value_observed("c1ccc(N2N=C3N(c4ccccc4)C2N3c2ccccc2)cc1")
"-10% (inactive)"
>>> value_observed("N#C/C(=C/N1C(=O)/C(=C/c2ccc([N+](=O)[O-])cc2)SC1=S)c1nc2ccccc2s1")
"3% (inactive)"
>>> value_observed("N#C/C(=C1C=C(Br)/C(=N\\O)C=C\\1Cl)c1cccc2ccccc12")
"63% (inactive)"
>>> value_observed("CC(=O)OCC1OC(O[C@H]2C=C[C@@H](C(=O)OCc3ccccc3)n3c(=O)n(-c4ccccc4)c(=O)n32)C(OC(C)=O)C(OC(C)=O)C1OC(C)=O (some centres not stated)")
"24% (inactive)"
>>> value_observed("CN(NC(=O)/C(=C/c1ccc(O)cc1)NC(=O)c1ccccc1)c1ccnc2cc(Cl)ccc12")
"13% (inactive)"
>>> value_observed("CN(N=O)C(=O)N[C@@H](C=O)[C@@H](O)[C@H](O)[C@H](O)CO")
"-6% (inactive)"
>>> value_observed("COc1ccc(SCc2cc(OC)ccc2OC)cc1")
"-6% (inactive)"
>>> value_observed("Clc1nc(C(Cl)Cl)nc2sc3c(c12)CCCC3")
"12% (inactive)"
>>> value_observed("Cc1ccc(CNc2ccc(Br)cc2)cc1")
"6% (inactive)"
>>> value_observed("COc1cccc(C(c2cc3c(cc2O)OCO3)N2CCOCC2)c1OC (configuration not stated)")
"-4% (inactive)"
>>> value_observed("CCCCC(=O)c1c(O)nc2sccn2c1=O")
"26% (inactive)"
>>> value_observed("Cc1ccc(I)cc1N=C=S")
"10% (inactive)"
